# experimental.protocol: Terminal half life in Sprague-Dawley rat at 1 mg/kg, iv
# Assay type: ADME, organism-based
# Design: dose 1 mg/kg, route intravenous
# details: in vivo, read-out: beta t1/2 (converted)
Reported half-life values follow for various molecules
Hi, when you answer, please include the unit after the number. Thanks!

Measured half-life, "CC(=O)N1CCC(C(=O)N(CCCN2CCC(Cc3ccc(C(N)=O)cc3)CC2)c2ccc(C)c(Cl)c2)CC1.Cl" : 2.25 h

API: the following record is the query input.
Recorded result, "CC(=O)N1CCC(C(=O)N(CCCN2CCN(Cc3ccc(F)cc3)CC2)c2ccc(C)c(Cl)c2)CC1.Cl" , half-life: 0.59 h

###

# measured.on: Voltage-gated inwardly rectifying potassium channel KCNH2 (Homo sapiens, UniProt Q12809)
# Sequence (Q12809 whole entry): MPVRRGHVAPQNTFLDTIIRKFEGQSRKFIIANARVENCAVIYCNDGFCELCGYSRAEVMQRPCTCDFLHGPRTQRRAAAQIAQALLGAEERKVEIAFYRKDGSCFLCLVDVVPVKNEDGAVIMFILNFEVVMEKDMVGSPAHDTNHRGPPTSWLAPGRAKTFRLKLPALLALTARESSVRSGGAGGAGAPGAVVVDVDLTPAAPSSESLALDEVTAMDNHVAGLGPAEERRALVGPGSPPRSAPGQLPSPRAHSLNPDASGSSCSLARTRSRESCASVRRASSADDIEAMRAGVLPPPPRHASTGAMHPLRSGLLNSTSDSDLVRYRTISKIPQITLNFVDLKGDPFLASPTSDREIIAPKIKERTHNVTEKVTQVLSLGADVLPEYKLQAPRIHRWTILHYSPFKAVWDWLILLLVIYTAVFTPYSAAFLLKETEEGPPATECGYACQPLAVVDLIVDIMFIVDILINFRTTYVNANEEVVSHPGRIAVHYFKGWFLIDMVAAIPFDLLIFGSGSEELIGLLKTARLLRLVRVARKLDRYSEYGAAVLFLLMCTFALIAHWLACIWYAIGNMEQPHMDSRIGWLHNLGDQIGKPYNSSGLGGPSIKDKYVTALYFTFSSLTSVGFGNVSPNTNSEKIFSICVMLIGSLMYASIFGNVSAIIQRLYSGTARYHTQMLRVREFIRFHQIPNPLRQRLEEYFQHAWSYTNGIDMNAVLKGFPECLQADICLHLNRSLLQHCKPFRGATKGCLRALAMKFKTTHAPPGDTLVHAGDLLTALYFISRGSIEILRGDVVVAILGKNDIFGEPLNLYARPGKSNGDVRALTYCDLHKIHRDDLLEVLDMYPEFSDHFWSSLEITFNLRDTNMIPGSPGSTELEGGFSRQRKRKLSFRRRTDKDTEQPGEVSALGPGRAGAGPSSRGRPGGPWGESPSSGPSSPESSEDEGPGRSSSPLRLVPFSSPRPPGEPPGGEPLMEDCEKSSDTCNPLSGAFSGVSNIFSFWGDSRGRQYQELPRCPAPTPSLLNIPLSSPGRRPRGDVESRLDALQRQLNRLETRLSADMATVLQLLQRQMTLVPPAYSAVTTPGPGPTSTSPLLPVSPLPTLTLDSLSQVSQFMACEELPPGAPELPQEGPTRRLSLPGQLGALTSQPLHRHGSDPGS
# experimental.protocol: Inhibition of human Erg expressed in HEK293 cells by whole cell patch clamp assay
measurement.label: IC50 (nM)
Output spec: scalar in nM, unitless text.

# IC50 (compound: "CC(=O)N1CCC(C(=O)N(CCCN2CCN(Cc3ccc(F)cc3)CC2)c2ccc(C)c(Cl)c2)CC1.Cl" ) is 1820

###

# experimental.protocol: Terminal half life in Sprague-Dawley rat at 5 mg/kg, po
# Format: ADME, organism-based
# Set-up: dose 5 mg/kg, route oral
# details: in vivo, read-out: beta t1/2 (converted)
Reported half-life by item:
The response must be a number in h with no trailing unit.

Query "CC(=O)N1CCC(C(=O)N(CCCN2CCC(Cc3ccc(C(N)=O)cc3)CC2)c2ccc(C)c(Cl)c2)CC1.Cl" yields half-life of 4.25

New cases:
half-life recorded for this compound, "CC(=O)N1CCC(C(=O)N(CCCN2CCN(Cc3ccc(F)cc3)CC2)c2ccc(C)c(Cl)c2)CC1.Cl" , is 0.76

###

# experimental.protocol: Cytotoxicity against human CEMx174 5.25M7
# details: CEMx174 5.25M7 cells
CC50 values, listed per item
Kindly provide the numeric value in µM only, without the unit symbol.

Summary for this compound, "CC(=O)N1CCC(C(=O)N(CCCN2CCC(CNc3cc(C)ccn3)CC2)c2ccc(C)c(Cl)c2)CC1" : CC50 is 17.9

Value of measured CC50 for the entry "CC(=O)N1CCC(C(=O)N(CCCN2CCN(Cc3ccc(Cl)cc3)CC2)c2ccc(C)c(Cl)c2)CC1" : 37.6

Further cases:
According to the records, this compound "CCN(Cc1ccccc1)C(=O)C1CCN(CCCN(C(=O)C2CCN(C(C)=O)CC2)c2ccc(C)c(Cl)c2)CC1" displays CC50 of 83.9

###

# Test system: hERG
# experimental.protocol: Selectivity ratio of IC50 for human Erg to IC50 for HIV1 Bal infected in human CEMx174 5.25 cells
# Type: ADME, cell-based
# details: HIV1 Bal infected CEMx174 5.25 cells, read-out: Ratio IC50
measurement.label: selectivity ratio
Hey, just send me the number, nothing else.

The reported selectivity ratio of the molecule "CC(=O)N1CCC(C(=O)N(CCCN2CCN(Cc3ccc(F)cc3)CC2)c2ccc(C)c(Cl)c2)CC1.Cl" was 295

###

# experimental.protocol: Solubility of the compound in 10 mM phosphate sodium buffer at pH 7.4 at 25 degC
# Assay type: physicochemical
Catalogue of solubility readings, one per entry.
Reply with just the number (in µg/mL).

Looking up "CC(=O)N1CCC(C(=O)N(CCCN2CCC(Cc3ccc(C(N)=O)cc3)CC2)c2ccc(C)c(Cl)c2)CC1.Cl" , I see its solubility listed as 2000

Let's switch to this molecule now.
Entry under test: "CC(=O)N1CCC(C(=O)N(CCCN2CCN(Cc3ccc(F)cc3)CC2)c2ccc(C)c(Cl)c2)CC1.Cl" . Its solubility was 25000

###

Below, each entry is listed with its recorded CC50.
# experimental.protocol: Cytotoxicity against human CEMx174 5.25M7
# details: CEMx174 5.25M7 cells

Past entries and their recorded results:
Record "CC(=O)N1CCC(C(=O)N(CCCN2CCN(Cc3ccc(C(F)(F)F)cc3)CC2)c2ccc(C)c(Cl)c2)CC1" . Reported CC50: 30.5 µM

molecule "CC(=O)N1CCC(C(=O)N(CCCN2CCN(Cc3ccncc3)CC2)c2ccc(C)c(Cl)c2)CC1" , CC50 observed: > 56.7 µM

For this molecule ( "CC(=O)N1CCC(C(=O)N(CCCN2CCN(Cc3ccc(F)cc3)CC2)c2ccc(C)c(Cl)c2)CC1.Cl" ), measured CC50 is > 100 µM

// CC50 lookup, molecule = "CC(=O)N1CCC(C(=O)N(CCCN2CCC(CNC(=O)c3ccsc3)CC2)c2ccc(C)c(Cl)c2)CC1" , result: > 51.9 µM

---
Per the record, "CC(=O)N1CCC(C(=O)N(CCCN2CCC(CNc3ncccn3)CC2)c2ccc(C)c(Cl)c2)CC1" has CC50 of > 55.1 µM

Looking up "CC(=O)N1CCC(C(=O)N(CCCN2CCC(Oc3ccccc3)CC2)c2ccc(C)c(Cl)c2)CC1" , I found its CC50 recorded as > 56.6 µM

Please fill in: CC50 reported for "CCN(C(=O)Cc1ccccc1)C1CCN(CCCN(C(=O)C2CCN(C(C)=O)CC2)c2ccc(C)c(Cl)c2)CC1.Cl" = 36.2 µM

// recorded CC50 for "CC(=O)N1CCC(C(=O)N(CCCN2CCN(Cc3ccc(C#N)cc3)CC2)c2ccc(C)c(Cl)c2)CC1" : > 100 µM

###

# experimental.protocol: Oral bioavailability in Sprague-Dawley rat at 5 mg/kg
# Assay type: ADME, organism-based
# details: in vivo
measurement.label: bioavailability (%)
Response body: numeric value in %, unit text excluded.

Please fill in: bioavailability reported for "CC(=O)N1CCC(C(=O)N(CCCN2CCN(Cc3ccc(F)cc3)CC2)c2ccc(C)c(Cl)c2)CC1.Cl" = 56

API: the following record is the query input.
Looking up "CC(=O)N1CCC(C(=O)N(CCCN2CCC(Cc3ccc(C(N)=O)cc3)CC2)c2ccc(C)c(Cl)c2)CC1.Cl" , I see its bioavailability listed as 1.4

###

Measured selectivity ratio, listed per entry.
# experimental.protocol: Selectivity ratio of CC50 for human CEMx174 5.25M7 cells to IC50 for HIV1 Bal infected in CEMx174 5.25M7 cells
# Assay type: ADME, cell-based
# details: read-out: Ratio CC50/IC50

Field: example entries. Status: answers known.
What the record says about "CC(=O)N1CCC(C(=O)N(CCCN2CCC(CNc3ncccn3)CC2)c2ccc(C)c(Cl)c2)CC1" : selectivity ratio is > 5330

For record "CC(=O)N1CCC(C(=O)N(CCCN2CCC(Cc3ccc(C(N)=O)cc3)CC2)c2ccc(C)c(Cl)c2)CC1.Cl" the listed selectivity ratio is > 40300

New cases:
// sample "CC(=O)N1CCC(C(=O)N(CCCN2CCN(Cc3cccnc3)CC2)c2ccc(C)c(Cl)c2)CC1" , its selectivity ratio was > 1740

###

# experimental.protocol: Selectivity ratio of CC50 for human CEMx174 5.25M7 cells to IC50 for HIV1 Bal infected in CEMx174 5.25M7 cells
# Assay type: ADME, cell-based
# details: read-out: Ratio CC50/IC50
selectivity ratio values, listed per item

Example results:
Quick note, selectivity ratio for "CC(=O)N1CCC(C(=O)N(CCCN2CCN(Cc3ccncc3)CC2)c2ccc(C)c(Cl)c2)CC1" landed at > 6150

Form field selectivity ratio, entry "CC(=O)N1CCC(C(=O)N(CCCN2CCN(Cc3ccc(C(F)(F)F)cc3)CC2)c2ccc(C)c(Cl)c2)CC1" : 16500

Sure, the documented selectivity ratio for "CC(=O)N1CCC(C(=O)N(CCCN2CCN(Cc3cnc(Cl)s3)CC2)c2ccc(C)c(Cl)c2)CC1" is > 4510

Looking up "CC(=O)N1CCC(C(=O)N(CCCN2CCC(CNC(=O)c3ccsc3)CC2)c2ccc(C)c(Cl)c2)CC1" , I see its selectivity ratio listed as > 593

Short answer for "CCN(C(=O)Cc1ccccc1)C1CCN(CCCN(C(=O)C2CCN(C(C)=O)CC2)c2ccc(C)c(Cl)c2)CC1.Cl" : selectivity ratio was 6920

Continuing:
// selectivity ratio value for "CC(=O)N1CCC(C(=O)N(CCCN2CCN(C(=O)c3ccccc3)CC2)c2ccc(C)c(Cl)c2)CC1" : 663

// selectivity ratio lookup, compound = "CC(=O)N1CCC(C(=O)N(CCCN2CCN(Cc3ccccc3)CC2)c2ccc(C)c(Cl)c2)CC1" , result: 6800

Recorded result, "CC(=O)N1CCC(C(=O)N(CCCN2CCN(Cc3ccc(Cl)nc3)CC2)c2ccc(C)c(Cl)c2)CC1" , selectivity ratio: > 14500

The compound "CC(=O)N1CCC(C(=O)N(CCCN2CCN(Cc3ccc(Cl)cc3)CC2)c2ccc(C)c(Cl)c2)CC1" showed selectivity ratio equal to 5730

Item: "CC(=O)N1CCC(C(=O)N(CCCN2CCN(Cc3ccc(F)cc3)CC2)c2ccc(C)c(Cl)c2)CC1.Cl" | selectivity ratio: > 16200
